Experimental protocol: A CellTox Green Cytotoxicity Assay to monitor cytotoxicity in HepG2 cells - 32 hour (AID 1224883); also: nearly all actives have a fitted effect of over 50% in size
Setup conditions: CellTox Green fluorescence; series mostly up to 76.8 µM
Results filed as inconclusive are left out. The source made the active and inactive calls. Calls follow the shape of the dose curve; as a rule, active = well fitted activation curve with a large enough effect in the repeat runs; inconclusive = weak or mixed curves; inactive = flat fitted curve, though single readings scatter. Starred links: 1 amine or outer side, 2 acyl side, 3 side chain; linkers in the order of their positions; H or OH if unused. Positions of bridges follow the written chain, without caps; N, C: chain ends. Non-standard residues stand in square brackets, D forms with d. Residues, ends and D or L forms follow the SMILES beside them. Chains are numbered I, II in the order given. Actinocin(9to1) = Cc1c2oc3c(C)ccc(C(=O)[*:1])c3nc-2c(C(=O)[*:2])c(N)c1=O; NMeV = CN[C@H](C(=O)O)C(C)C; Sar = CNCC(=O)O
Pick one: active, inactive

Consider the worked cases shown below.
[[record]]
molecule = "CC(=O)CC(=O)Nc1ccc2[nH]c(=O)[nH]c2c1"
classification = "inactive"

[[record]]
molecule = "Nc1ccc2cc3ccccc3cc2c1"
classification = "inactive"


Tell me the recorded outcome of this test for `COc1ccc(COC(C)=O)cc1` .
inactive

Tell me the recorded outcome of this test for `O=C1Nc2ccccc2C1(c1ccc(O)cc1)c1ccc(O)cc1` .
inactive

Tell me the recorded outcome of this test for `CCn1c2ccccc2c2cc(N)ccc21` .
inactive

Tell me the recorded outcome of this test for `NCCCCCC(=O)O` .
inactive

Tell me the recorded outcome of this test for `CC(C)(c1ccccc1)c1ccc(Nc2ccc(C(C)(C)c3ccccc3)cc2)cc1` .
inactive

Tell me the recorded outcome of this test for `CC(N)=O` .
inactive

Tell me the recorded outcome of this test for `O=C(Oc1ccccc1)c1ccccc1O` .
inactive

Tell me the recorded outcome of this test for Cc1c2oc3c(C)ccc(C(=O)N[C@@H]4C(=O)N[C@H](C(C)C)C(=O)N5CCC[C@H]5C(=O)N(C)CC(=O)N(C)[C@@H](C(C)C)C(=O)O[C@@H]4C)c3nc-2c(C(=O)N[C@@H]2C(=O)N[C@H](C(C)C)C(=O)N3CCC[C@H]3C(=O)N(C)CC(=O)N(C)[C@@H](C(C)C)C(=O)O[C@@H]2C)c(N)c1=O (I: T[dV]P[Sar][NMeV] / II: T[dV]P[Sar][NMeV]; ester I:1-I:C, II:1-II:C; linker I:N-II:N via Actinocin(9to1)) .
active

Tell me the recorded outcome of this test for `O=C(O)c1cc(Cl)cc(Cl)c1` .
inactive

Tell me the recorded outcome of this test for `OCC(CO)N[C@H]1C[C@](O)(CO)[C@@H](O)[C@H](O)[C@H]1O` .
inactive

# credit: PubChem BioAssay (Tox21)
